// data source = patent US6211244A

Target: human calcium receptor (Homo sapiens, UniProt P41180, R990G)
Construct: expressed in transfected cells; host or cells: HEK 293
Sequence (P41180 20-1078 R990G): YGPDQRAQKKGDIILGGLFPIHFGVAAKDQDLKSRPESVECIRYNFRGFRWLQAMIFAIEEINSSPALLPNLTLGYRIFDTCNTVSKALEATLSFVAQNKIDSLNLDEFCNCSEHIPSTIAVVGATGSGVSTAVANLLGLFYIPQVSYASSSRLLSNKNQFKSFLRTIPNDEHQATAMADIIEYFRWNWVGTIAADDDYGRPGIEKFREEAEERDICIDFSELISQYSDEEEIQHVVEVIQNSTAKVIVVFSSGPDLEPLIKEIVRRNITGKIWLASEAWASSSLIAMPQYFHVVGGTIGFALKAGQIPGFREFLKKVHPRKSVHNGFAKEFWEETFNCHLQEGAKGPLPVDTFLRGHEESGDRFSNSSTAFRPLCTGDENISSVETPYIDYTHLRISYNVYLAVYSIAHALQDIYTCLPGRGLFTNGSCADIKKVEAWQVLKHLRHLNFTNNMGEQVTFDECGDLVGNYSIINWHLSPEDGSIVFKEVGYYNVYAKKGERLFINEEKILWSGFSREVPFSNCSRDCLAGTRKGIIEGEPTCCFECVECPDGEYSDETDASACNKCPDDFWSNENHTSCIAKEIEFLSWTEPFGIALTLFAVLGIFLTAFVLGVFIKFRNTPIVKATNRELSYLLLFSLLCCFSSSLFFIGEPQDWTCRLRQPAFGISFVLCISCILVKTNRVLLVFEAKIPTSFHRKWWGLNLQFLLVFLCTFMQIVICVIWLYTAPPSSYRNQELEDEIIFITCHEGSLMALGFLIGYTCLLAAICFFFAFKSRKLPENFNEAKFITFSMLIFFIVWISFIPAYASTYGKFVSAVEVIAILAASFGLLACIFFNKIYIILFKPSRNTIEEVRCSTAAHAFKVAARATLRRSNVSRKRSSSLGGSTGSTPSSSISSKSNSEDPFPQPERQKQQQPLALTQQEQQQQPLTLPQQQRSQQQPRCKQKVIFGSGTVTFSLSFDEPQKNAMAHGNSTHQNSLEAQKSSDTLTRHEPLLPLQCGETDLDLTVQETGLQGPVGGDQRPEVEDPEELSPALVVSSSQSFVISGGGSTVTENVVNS
Test: increases in [Ca^2+ ]i in HEK-293 cells expressing the human calcium receptor (fura-2 loaded HEK 293/pHuPCaR4.0 cells), % activity
Type: cell-based
Conditions: 330 ng/mL
Recorded % activity for the following molecules
A number alone suffices; assume %.

Worked cases, answers included:
                                   molecule                           measured_target  data_value
0  CC(C)Cc1ccc(C(C)CNC(C)c2cccc3ccccc23)cc1 (mixture of isomers) [Compound 14A]  human calcium receptor (Homo sapiens, UniProt P41180, R990G)          78
1  COc1cccc([C@@H](C)NCc2ccc(C(C)C)cc2)c1 [Compound 11Y]  human calcium receptor (Homo sapiens, UniProt P41180, R990G)         103
2  COc1cccc([C@@H](C)NCCCc2cccc(C(F)(F)F)c2)c1 [Compound 21P]  human calcium receptor (Homo sapiens, UniProt P41180, R990G)          92
3  COc1ccc(CNC(C)c2ccc(I)cc2)cc1C (stereo not drawn) [Compound 23T]  human calcium receptor (Homo sapiens, UniProt P41180, R990G)          74
4  COc1cccc([C@@H](C)NCC(C)=Cc2ccccc2)c1 [Compound 25G]  human calcium receptor (Homo sapiens, UniProt P41180, R990G)         115
5  C[C@@H](N[C@H](C)c1cccc2ccccc12)c1ccc2ccccc2c1.Cl  human calcium receptor (Homo sapiens, UniProt P41180, R990G)         108
6     COc1cccc([C@@H](C)NCCCc2cccc(Cl)c2)c1  human calcium receptor (Homo sapiens, UniProt P41180, R990G)          84
7  Cc1cc(C(C)NC(C)c2cccc3ccccc23)ccc1O (stereo not drawn) [Compound 17W]  human calcium receptor (Homo sapiens, UniProt P41180, R990G)          92
8  COc1cccc([C@@H](C)NCc2ccc(C(C)(C)c3ccccc3)cc2)c1 [Compound 12O]  human calcium receptor (Homo sapiens, UniProt P41180, R990G)         117
9  COc1ccc([C@@H](C)N[C@@H](C)c2cccc3ccccc23)cc1C [Compound 25W]  human calcium receptor (Homo sapiens, UniProt P41180, R990G)          69

// field: % activity; key: CC(NC1CC1c1ccccc1)c1cccc2ccccc12 (stereo not drawn) [Compound 10V] ; value = 99

// field: % activity; key: C[C@@H](NCC=C(c1ccccc1)c1ccccc1)c1ccccc1 ; value = 60

// field: % activity; key: CC(C=Cc1ccccc1)NC(C)c1ccccc1 (mixture of isomers) ; value = 62

// field: % activity; key: CC(NCCC(c1ccccc1)c1ccccc1)c1cccc(Cl)c1 (stereo not drawn) ; value = 59

// field: % activity; key: CC(NCCC(c1ccccc1)c1ccccc1)c1ccccc1Cl (stereo not drawn) ; value = 66

// field: % activity; key: COc1ccc([C@@H](C)N[C@H](C)c2cccc3ccccc23)cc1Cl [Compound 17X] ; value = 105

// field: % activity; key: COc1cccc([C@@H](C)NCc2ccc3c(c2)OCCO3)c1 [Compound 25O] ; value = 115

// field: % activity; key: CC(NC(C)c1cccc2ccccc12)c1ccc2c(c1)-c1ccccc1-2 (stereo not drawn) [Compound 10Q] ; value = 100
